Recorded values, source patent US20260265334A1.

Target: T1, LgBiT-RXFP4 (HEK-LgBiT-RXFP4 crude membrane fractions) (UniProt Q8TDU9 1-374)
T1 construct: Assayed as crude membrane fractions (25 µg protein) of HEK cells; not shown: LgBiT tag of NanoBiT
T1 sequence (Q8TDU9 whole entry): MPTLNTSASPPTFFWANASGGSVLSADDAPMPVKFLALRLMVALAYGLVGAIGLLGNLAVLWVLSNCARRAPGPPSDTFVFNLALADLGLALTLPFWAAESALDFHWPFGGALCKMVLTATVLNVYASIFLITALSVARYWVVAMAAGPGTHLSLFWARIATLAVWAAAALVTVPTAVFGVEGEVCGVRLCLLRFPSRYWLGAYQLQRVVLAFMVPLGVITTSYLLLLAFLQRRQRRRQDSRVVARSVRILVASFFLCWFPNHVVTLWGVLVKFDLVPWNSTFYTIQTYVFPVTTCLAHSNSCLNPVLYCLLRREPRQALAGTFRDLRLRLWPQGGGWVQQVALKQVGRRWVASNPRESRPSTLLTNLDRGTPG
Test: NanoBiT competition with 2 nM SmBiT-R3/I5 on HEK-LgBiT-RXFP4 membranes
Bridge positions count the residues as written; N and C are the ends. Square brackets hold non-standard residues; d marks the D form. Ends that are not written are not given here. I, II: the chains in the order shown. αMeF = C[C@](N)(Cc1ccccc1)C(=O)O
Attribute: pKi
Readout Name: pKi

1) SGL[αMeF]YIR[αMeF]VIYIEGGSRW (18-residue RXFP4 agonist with two αF residues and glutamic acid at residue 19 (numbering of native INSL5 B chain)) [πI5B7-24-GG-S19E] : 8.13
2) INSL5-A13: B7-24 (reduced two chain analogue) (ligand, not fully specified; cysteine pairing not given here, also called Formula II) chain 1: CTDGASMKDLSALC chain 2: CGLEYIRTVIYICASSRW : 8.06
3) INSL5-A13 (two-chain INSL5 analogue, RXFP4 agonist) (ligand, disulfide I:1-II:7, I:14-II:19, Disulfide bonds: Cys 1 of A chain to Cys 7 of B chain; Cys 14 of A chain to Cys 19 of B chain; also called Analogue 13; two chain agonist) chain 1: CTDGASMKDLSALC chain 2: KESVRLCGLEYIRTVIYICASSRW : 8.11
